System: MEK1
Construct: gene MAP2K1
Details: concentration: 1 μM, replicates: in singlicate; n = 1;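 note: KINOMEscan kinase panel screen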
Would you mind telling me the reported %Inh of each entry?
The reply should be a number in %, with the unit left off.

// query Would you kindly share the measured %Inh for O=C1NC(=O)C(N2CCc3ccccc32)=C1c1ccccc1Cl [SB-373598] ?
// result 13

// query Would you kindly share the measured %Inh for C[C@@H]1CCCCN1c1cc(-c2ccc3c(N)n[nH]c3c2)nc(N)n1 [GSK2258759] ?
// result 27

// query Would you kindly share the measured %Inh for CS(=O)(=O)c1ccc(-c2nc3n(c2-c2ccncc2)CCC3)cc1 [SKF-105942] ?
// result 0

// query Would you kindly share the measured %Inh for COc1ccc(Nc2nccc(-c3cccc(NC(=O)c4cc5cc(F)ccc5[nH]4)c3)n2)cc1 [GSK1229782] ?
// result 0

// query Would you kindly share the measured %Inh for COc1ccc(CNC(=O)NC2CCN(c3ccnc(Nc4cc(OC)c(OC)c(OC)c4)n3)C2)cc1 (centres unmarked) [GSK1379748] ?
// result 0

// query Would you kindly share the measured %Inh for CS(=O)(=O)c1ccc(-c2c(-c3ncn[nH]3)sc(N3CCOCC3)c2C#N)cc1 ?
// result 2

// query Would you kindly share the measured %Inh for O=C(Nc1ccccc1)Nc1cccc(Oc2ccc3nccn3n2)c1 ?
// result 0

// query Would you kindly share the measured %Inh for COc1cccc(-c2cc(-c3c[nH]nc3-c3ccccn3)ccn2)c1 [GW680338] ?
// result 16

// query Would you kindly share the measured %Inh for Cc1nnc(-c2ccc3occ(-c4ccc(S(C)=O)cc4)c3c2)[nH]1 (centres unmarked) ?
// result 8

// query Would you kindly share the measured %Inh for Cc1cc(-c2ccc3c(c2)CC[C@@H](N[C@@H](C)c2ccccc2)C3)cnc1N.Cl [GW412617] ?
// result 0

// query Would you kindly share the measured %Inh for Cn1ccc2ncnc(Oc3ccc(Nc4nc5ccccc5[nH]4)cc3)c21 ?
// result 0

// query Would you kindly share the measured %Inh for Cl.NC(=O)c1cccc(Nc2nccc(Nc3ccc(Oc4cccc(Cl)c4)c(Cl)c3)n2)c1 [GW659008] ?
// result 0

// query Would you kindly share the measured %Inh for COc1cc(Nc2nccc(N3CCC(NC(=O)Nc4cc(C)ccc4C)C3)n2)cc(OC)c1OC (centres unmarked) [GSK1379762] ?
// result 0

// query Would you kindly share the measured %Inh for Cc1cc(N2Cc3ccccc3C2)nc(Nc2ccc(S(=O)(=O)N3CCOCC3)cc2)n1.Cl [GSK1669917] ?
// result 0

// query Would you kindly share the measured %Inh for O=C(Nc1ccc2c(c1)OCO2)NC1CCN(c2ccnc(Nc3ccc(F)cc3)n2)C1 (centres unmarked) [GSK1379724] ?
// result 0

// query Would you kindly share the measured %Inh for COc1ccccc1-c1ccc2c(NC(=O)C3CC3)n[nH]c2n1 [SB-711239] ?
// result 0

// query Would you kindly share the measured %Inh for Cc1cccc(-c2nc(Nc3ccncc3)c3ccccc3n2)n1 [GW855857] ?
// result 0

// query Would you kindly share the measured %Inh for Cc1cc(NCC(c2ccccc2)c2ccccc2)nc(NCc2ccc(C(F)(F)F)cc2)n1 [GW497681] ?
// result 0

// query Would you kindly share the measured %Inh for Cc1cccc(-c2nc(Nc3cccc(C(N)=O)c3)c3ccccc3n2)n1 [GW876019] ?
// result 97.2

// query Would you kindly share the measured %Inh for Cc1cccc(-c2nc(C)cc(Nc3ccncc3)n2)n1 [GSK257997] ?
// result 0

// query Would you kindly share the measured %Inh for COc1cc2ncnc(Nc3ccc4nc(-c5ccccc5)[nH]c4c3)c2cc1OC.Cl [GW282450] ?
// result 0

// query Would you kindly share the measured %Inh for Cl.Oc1ccc(-c2nc(-c3ccccc3)[nH]c2-c2ccncc2)cc1 [SB-428218] ?
// result 0

// query Would you kindly share the measured %Inh for O=C(Nc1n[nH]c2nc(-c3nccs3)c(Br)cc12)C1CCCC1 [SB-742609] ?
// result 0

// query Would you kindly share the measured %Inh for Nc1nc(-c2nccs2)c(-c2ccnc3ccccc23)s1 [GW693542] ?
// result 0

// query Would you kindly share the measured %Inh for O=C(O)COc1ncnc2cc(-c3ccc4[nH]ncc4c3)sc12 ?
// result 5

// query Would you kindly share the measured %Inh for COc1ccc2nc(-c3cccc(C)n3)nc(Nc3ccncc3)c2c1 [GSK204919] ?
// result 0

// query Would you kindly share the measured %Inh for Cc1c(O)cccc1Nc1ccnc2ccc(C(F)(F)F)cc12.Cl [GW466413] ?
// result 0

// query Would you kindly share the measured %Inh for Clc1cc(Cl)cc(Nc2ccnc(Nc3cc(Cl)cc(Cl)c3)n2)c1 [GSK175726] ?
// result 0

// query Would you kindly share the measured %Inh for Cc1ccccc1-n1cnc2c(N)ncnc21 [SKF-97510] ?
// result 0

====

Test system: MAP3K1
Conditions: concentration: 1 μM, replicates: in singlicate; n = 1
Rule: fulfilled for %Inh not less than 1%, not fulfilled for anything less.

// query Can Clc1cc(Cl)cc(Nc2ccnc(Nc3cc(Cl)cc(Cl)c3)n2)c1 [GSK175726] be said to have %Inh at or above 1%?
// result not fulfilled

// query Can Cn1cncc1-c1ccc2ncnc(Nc3ccc(OCc4ccccc4)cc3)c2c1 [GW320571] be said to have %Inh at or above 1%?
// result fulfilled

// query Can Cc1nnc(-c2ccc3occ(-c4ccc(S(C)=O)cc4)c3c2)[nH]1 (stereo not drawn) be said to have %Inh at or above 1%?
// result fulfilled

// query Can CS(=O)(=O)c1ccc(-c2c(-c3ncn[nH]3)sc(N3CCOCC3)c2C#N)cc1 be said to have %Inh at or above 1%?
// result fulfilled

// query Can COc1cc2nccc(Nc3ccc(NC(=O)c4ccc(C)cc4)c(O)c3)c2cc1OC.Cl [GW440132] be said to have %Inh at or above 1%?
// result fulfilled

// query Can COc1cc2ncn(-c3cc(OCC4CCCO4)c(C(N)=O)s3)c2cc1OC (stereo not drawn) [GSK204607] be said to have %Inh at or above 1%?
// result fulfilled

// query Can Cn1ccc2ncnc(Oc3ccc(NC(=O)Nc4ccccc4)cc3)c21 be said to have %Inh at or above 1%?
// result not fulfilled

// query Can Cl.Oc1ccc(-c2nc(-c3ccccc3)[nH]c2-c2ccncc2)cc1 [SB-428218] be said to have %Inh at or above 1%?
// result not fulfilled

====

System: CSNK1D
Conditions: concentration: 1 μM, replicates: in singlicate; n = 1
Rule: 1 for %Inh not less than 20%, -1 for anything less.

// query Can Cc1cccc(-c2nc(Nc3ccc4[nH]ncc4c3)c3ccccc3n2)n1 [GW857175] be said to have %Inh at or above 20%?
// result 1

// query Can CS(=O)(=O)c1ccc(-c2c(-c3ncn[nH]3)sc(N3CCOCC3)c2C#N)cc1 be said to have %Inh at or above 20%?
// result -1

// query Can O=C(Nc1n[nH]c2nc(-c3nccs3)c(Br)cc12)C1CC1 [SB-742251] be said to have %Inh at or above 20%?
// result 1

// query Can O=C(Nc1ccc2c(c1)OCO2)NC1CCN(c2ccnc(Nc3ccc(F)cc3)n2)C1 (stereo not drawn) [GSK1379724] be said to have %Inh at or above 20%?
// result 1

// query Can Cc1ccc(C(=O)Nc2ccc(Nc3ccnc4cc(-c5ccccn5)ccc34)cc2O)cc1.Cl [GW440146] be said to have %Inh at or above 20%?
// result -1

// query Can NC(=O)c1nnc2ccccc2c1N be said to have %Inh at or above 20%?
// result 1

// query Can Cc1cccc(-c2cc(Nc3ccncc3)c3ccccc3n2)n1 [GSK223675] be said to have %Inh at or above 20%?
// result -1

// query Can Cc1ccc(NC(=O)Nc2cccc(Cl)c2)cc1-c1ccc(C(=O)Nc2ccncc2)cc1 [GSK1398468] be said to have %Inh at or above 20%?
// result 1

// query Can Cc1cccc(-c2nc(Nc3ccncc3)c3ccccc3n2)n1 [GW855857] be said to have %Inh at or above 20%?
// result 1

====

System: ASK2
Construct: gene MAP3K6
Details: concentration: 1 μM, replicates: in singlicate; n = 1
Rule: Condition met for %Inh not less than 4%, Condition not met for anything less.

// query Can O=C(Nc1n[nH]c2nc(-c3nccs3)c(Br)cc12)C1CC1 be said to have %Inh at or above 4%?
// result Condition met

// query Can CC(C)(C)c1ccc(C(=O)Nc2cn3cc(Cl)ccc3n2)cc1 be said to have %Inh at or above 4%?
// result Condition not met

// query Can Cc1ccc(NC(=O)Nc2cc(C(C)(C)C)nn2-c2ccccc2)cc1 be said to have %Inh at or above 4%?
// result Condition met

// query Can COc1ccc(Nc2nccc(-c3cccc(NC(=O)c4cc5cc(F)ccc5[nH]4)c3)n2)cc1 be said to have %Inh at or above 4%?
// result Condition not met

// query Can COc1ccc(CNC(=O)NC2CCN(c3ccnc(Nc4cc(OC)c(OC)c(OC)c4)n3)C2)cc1 (stereo not drawn) be said to have %Inh at or above 4%?
// result Condition met

// query Can O=C1NC(=O)C(N2CCc3ccccc32)=C1c1ccccc1Cl be said to have %Inh at or above 4%?
// result Condition met

// query Can Cc1cccc(-c2nc(C)cc(Nc3ccncc3)n2)n1 be said to have %Inh at or above 4%?
// result Condition not met

// query Can Cc1cccc(-c2nc(-c3ccc(S(C)(=O)=O)cc3)sc2-c2ccnc(NCCc3ccccc3)c2)c1 be said to have %Inh at or above 4%?
// result Condition not met

Recorded values, source paper PMC5540273.
